- SYSTEM UNDER TEST: T1, human IL-18 binding protein (human, UniProt O95998 31-194)
- T1 sequence (looked up): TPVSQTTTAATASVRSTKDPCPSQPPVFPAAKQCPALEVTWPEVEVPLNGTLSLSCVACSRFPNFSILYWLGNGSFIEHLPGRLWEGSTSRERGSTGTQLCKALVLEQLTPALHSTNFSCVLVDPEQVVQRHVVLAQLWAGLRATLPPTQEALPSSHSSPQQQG
- EXPERIMENTAL DETAILS: cell-based or functional assay
The following binders are shown together with reported Ratio (-BP/+BP), DF-100,000 values.

[
  {
    "BINDER": "yeast display IL-18 variant K53S, S55G (ligand) YFGKLESKLSVIRNLNDQVLFIDQGNRPLFEDMTDSDMRDNAPRTIFIISMYSDGQPRGMAVTISVKSEKISTLSSENKIISFKEMNPPDNIKDTKSDIIFFQRSVPGHDNKMQFESSSYEGYFLASEKERDLFKLILKKEDELGDRSIMFTVQNED",
    "Ratio (-BP/+BP), DF-100,000": 0.95
  },
  {
    "BINDER": "yeast display IL-18 variant K53W, S55A (ligand) YFGKLESKLSVIRNLNDQVLFIDQGNRPLFEDMTDSDMRDNAPRTIFIISMYWDAQPRGMAVTISVKSEKISTLSSENKIISFKEMNPPDNIKDTKSDIIFFQRSVPGHDNKMQFESSSYEGYFLASEKERDLFKLILKKEDELGDRSIMFTVQNED",
    "Ratio (-BP/+BP), DF-100,000": 0.84
  },
  {
    "BINDER": "yeast display IL-18 variant K53T, S55F (ligand) YFGKLESKLSVIRNLNDQVLFIDQGNRPLFEDMTDSDMRDNAPRTIFIISMYTDFQPRGMAVTISVKSEKISTLSSENKIISFKEMNPPDNIKDTKSDIIFFQRSVPGHDNKMQFESSSYEGYFLASEKERDLFKLILKKEDELGDRSIMFTVQNED",
    "Ratio (-BP/+BP), DF-100,000": 1.09
  }
]
